// reported activation for each item listed
- assay_notes: nonspecific cAMP agonists in parental HEK-CNG cells, counter-screen for GalR3 antagonist project, cell-based, fluorescence, high throughput (AID 652268)
- condition_set: HEK293-CNG parental cells, cAMP membrane potential fluorescence; at 3 µM; active compounds read high; normalised: DMSO wells 0%, forskolin wells 100%
Out of some 1,600 compounds screened, about 160 (10%) were called active. Not all results are given here.
Just the number please, in %, no unit attached.

compound	activation / %
CCOC(=O)c1c(NC(=O)CSc2nccc(=O)[nH]2)sc(C)c1C	-1.63

Reported activation ( CSc1nc(N)c(C#N)c(-c2ccccc2Cl)c1C#N ) = -0.24

The measured activation associated with CCc1ccc(-c2nc(SCC(=O)NC3CCCC3)n[nH]2)cc1 reads 0.04

Form field activation, entry OC[C@@H]1CN(Cc2ccc(-c3ccccc3)cc2)C[C@H](n2cnc3c(NC4CCCC4)ncnc32)O1 : -0.91

// COc1cc(NC(=O)c2cc([N+](=O)[O-])ccc2Br)ccc1NC(=O)c1ccco1 : activation value = -0.55

The value of activation measured for the compound CN(Cc1cccnc1)C(=O)c1cc(COc2ccc3ncccc3c2)on1 turned out to be -0.15

// field: activation; key: COc1ccc(-c2[nH]nc3c2C(c2ccncc2)C(C#N)=C(N)O3)cc1 (configuration not stated) ; value = 0.22

---

Attribute: activation
- assay_notes: nonspecific cAMP agonists in parental HEK-CNG cells, counter-screen for GalR3 antagonist project, cell-based, fluorescence, high throughput (AID 652268)
- condition_set: HEK293-CNG parental cells, cAMP membrane potential fluorescence; at 3 µM; active compounds read high; normalised: DMSO wells 0%, forskolin wells 100%
Among all 1,600 compounds or so, about 160 (10%) were called active. Only a sample is shown.
Give the number; % is assumed, so skip it.

Below are worked cases with known answers.
molecule	measured_quantity	data_value
CCn1c(-c2cc(OC)ccc2OC)csc1=Nc1c(C)n(C)n(-c2ccccc2)c1=O	activation	0.13
CC(CCc1ccccc1)NCC(O)c1cccc([N+](=O)[O-])c1 (stereo unspecified)	activation	0.27
O=C(Nc1ccccc1Cl)/C(Cl)=C(\Cl)S(=O)c1ccccc1 (stereo unspecified)	activation	3.18
COc1cc(C(=O)Nn2c(O)c(C3=c4ccccc4=NC3=O)sc2=S)ccc1O	activation	-0.64
Nc1nc(NCC(=O)O)nc(N2CCCCCC2)c1[N+](=O)[O-]	activation	0.22

The value of activation measured for the molecule NC(=O)c1ccc(NC(=O)COC(=O)C(Cc2ccccc2)NC(=O)c2ccccc2)cc1 (stereo unspecified) turned out to be -0.37

Reported activation for COc1ccc(CCNc2nc3ccc(C)cc3n3cnnc23)cc1OC was 0.25

Form: molecule = Cc1nc2ccccc2cc1OCc1ccc(F)cc1 ; activation = 1.08

// activation value for CC(=O)OC(C)C[N+](C)(C)C (stereo unspecified) : 0.43

For c1ccc(Cc2ccc(OCCn3ccnc3)cc2)cc1 the molecule record lists activation as -0.02

The value of activation measured for the molecule C#Cc1ccc(NC(=O)C2(C)CCN2C(=O)Cc2ccc(-c3ccccc3)cc2)cc1 (stereo unspecified) turned out to be -0.7
